Reference source for all entries: PubChem BioAssay (NCI)

# Tested on: TK-10 renal
# TEST: NCI-60 one-dose screen, 48 h (100 = growth as untreated, 0 = no growth, -100 = all killed)
# SETTINGS: 10 µM unless noted
About 83,000 compounds went through this panel and 20% of them were active in at least one assay; those are over-represented in the sample as a whole.
VALUE_TYPE: growth (%)
Numbers only, in %.

The following compounds have reported results that may help.
COMPOUND	DISPLAY_UNIT	NUMERIC_VALUE
N=C(N)SCc1c2ccccc2c(CSC(=N)N)c2ccccc12	%	98.5
CONC1=Nc2cc(NC(N)=NCc3ccccc3)c(N(C)C3CCCCC3)cc2OC1	%	82.3
CC(Sc1ccccc1)C(=O)O (stereo not given)	%	102

Each compound below has a reported value. Please supply its growth.
1. CCCCCCCCCCCCCCCC(=O)O[C@@H]1[C@@H](O)[C@@H](O)C([C@H](NC(=O)[C@@H]2C[C@@H](CCC)CN2C)[C@H](C)Cl)O[C@@H]1SC (stereo not given in full)
2. CN1C(=O)N(C)C2(c3ccccc3)N(CC(=O)Nc3ccccc3O)C(=O)NC12c1ccccc1 (stereo not given)
3. COC(=O)c1[nH]nc(OC)c1C1(C(C#N)c2nc3ccccc3s2)CCCc2ccccc21 (stereo not given)

1: 115; 2: 93.9; 3: 139

# return growth for each item in the list
1. CCOC(=O)c1nnn(Cc2cc(=O)oc3c2ccc2ccccc23)c1C
2. CCNC(=O)Nc1ncccc1OCc1ccc(F)cc1

101
92.8

I have 2 compounds here; please give me growth for each one.
1. CCOC(=O)C1=C(C)NC(=O)NC1c1c(Cl)n(-c2ccccc2)c2ccccc12 (stereo not given)
2. COc1cc(F)c(/C=C/c2cc(/C=C/c3cc(OC)c(OC)cc3F)n(-c3cc(F)cc(F)c3)n2)cc1OC

98.9
68.9

----------
Consider the following compounds; for each one, report its growth.
# Test system: SNB-19 CNS
# TEST: NCI-60 one-dose screen, 48 h (100 = growth as untreated, 0 = no growth, -100 = all killed)
# SETTINGS: 10 µM
About 83,000 compounds went through this panel and 20% of them were active in at least one assay; those are over-represented in the sample as a whole.
Numbers only, in %.

Please review the entries below; each comes with its answer.
> print(dat)
                              line.notation  test.target  display.unit  numeric.value
1  CC(=O)/C=C/c1ccc(N(CCO)Cc2ccc(C(C)(C)C)cc2)cc1   SNB-19 CNS             %            102
2  O=C(/C=C/c1cccc(Oc2ccc(Cl)cc2)c1)c1ccccc1   SNB-19 CNS             %           90.5
3  COc1ccc(C(=O)/C=C/c2ccc(OCc3cccc(C(F)(F)F)c3)c(OC)c2)cc1OC   SNB-19 CNS             %           93.9

Which growth is reported with SNB-19 CNS for this entry: CC(=O)/C=C/c1ccc(N(C)Cc2ccc(C(C)(C)C)cc2)cc1 ?
110

----------
# System: T-47D breast
# TEST: NCI-60 one-dose screen, 48 h
# SETTINGS: 10 µM unless noted
The panel holds about 83,000 compounds, 20% with a hit somewhere; the sample as a whole holds those more often. The source made the active and inactive calls. The calls were made as follows: active = growth percent below 10; inactive = the rest.
Parameter call: string, one of active, inactive

> print(dat)
                                   molecule  group.label
1  Oc1ccccc1C=Nc1ccc(N2CCN(c3ccccc3)CC2)cc1     inactive

Which result was noted for this molecule in the test: Cn1cc(-c2nonc2-c2cn(C)c3ccc(Br)cc23)c2ccccc21
inactive

----------
# Tested on: HCC-2998 colon
# TEST: NCI-60 one-dose screen, 48 h (100 = growth as untreated, 0 = no growth, -100 = all killed)
# SETTINGS: 10 µM unless noted
Compounds without any hit were thinned out: in the full panel of roughly 83,000, 20% have a hit.
VALUE_TYPE: growth (%)
Numbers only, in %.

These recorded examples may help you get a feel for the data.
> print(dat)
                                   compound  value.type  numeric.value
1  CC(=O)N1N=C(c2ccc(Nc3nc(Nc4ccc(F)cc4)nc(Nc4ccc(F)cc4)n3)cc2)CC1c1ccccc1 (stereo not given)      growth           94.3
2  Nc1ccc(-c2nc3ccc4[nH]ncc4c3c3c2CCCC3)cc1F      growth           44.3
3  COc1cccc(NC(=O)c2sc3nc(C)c(C(O)c4ccccc4)cc3c2N)c1 (stereo not given)      growth           9.98

Hi team, please reply with growth for each item in this list.
1. CCN1CCN(CC(=O)Nc2nc3ccc(NCc4ccc(C)cc4)cc3s2)CC1
2. COc1ccc(C2=C(CN)C(O)NC(=NCC(=O)c3ccc4ccccc4c3)N2)cc1 (stereo not given)
3. COc1ccc2c(c1)CC[C@@H]1[C@@H]2CC[C@]2(C)C3C(=CCC4C(=O)N(c5ccccc5)C(=O)C43)C[C@@H]12 (stereo not given in full)
4. COc1ccc(Nc2nn3c(SCC(=O)c4ccc(C)cc4)nnc3s2)cc1
5. OCc1cc(CN2CCCCC2)c(O)c2ncccc12

1. 80.9
2. 107
3. 93.6
4. 111
5. 51.6

Lab note: each compound below needs its growth filled in.
1. O=C1C(=C(O)c2ccccc2)C(=O)c2ccccc21
2. N#Cc1cc(-c2ccnc(Nc3ccc(NC(=O)CCl)cc3)n2)ccc1N1CCCC1

[109, -79.5]

----------
# Test system: SNB-75 CNS
# TEST: NCI-60 one-dose screen, 48 h (100 = growth as untreated, 0 = no growth, -100 = all killed)
# SETTINGS: 10 µM unless noted
The panel holds about 83,000 compounds, 20% with a hit somewhere; the sample as a whole holds those more often.
VALUE_TYPE: growth (%)
Give bare numbers, in %.

Some compounds with known growth results, for comparison:
> print(dat)
                              line.notation  numeric.value
1  Nc1c(C(=O)Nc2ccncc2)sc2nc3c(cc12)CCCCCCCC3          -96.2
2  COc1cc(OC)cc(-c2ccc(-c3ccc(C(=N)N)cn3)s2)c1           94.6
3  COc1ccc(/C=N/NC(=O)CN2CCN(c3cc4c(cc3F)c(=O)c(C(=O)O)cn4C3CC3)CC2)cc1O            106
4  COc1ccc(Oc2nc(Nc3ccc(N4CCOCC4)cc3)ncc2NC(=O)c2cccc(C(F)(F)F)c2)cc1           82.3
5  CCOC(=O)n1cc(-c2nonc2-c2cn(C)c3ccc(OC)cc23)c2cc(F)ccc21           70.2
6  c1cc(NCCCCN2CCOCC2)c2ccc3c(ccc4c(NCCN5CCOCC5)ccnc43)c2n1           86.8
7  Clc1ccc2c(NCCN3CCN(c4ccnc(N5CCCC5)n4)CC3)ccnc2c1           90.7
8  O=C(Nc1ncc(Cc2cccc(C(F)(F)F)c2)s1)c1ccc(-n2cnnn2)cc1           83.4

Give growth for all compounds that follow.
1. Nc1nc(Nc2cccnc2)sc1C(=O)c1ccccc1F
2. Clc1nccc2c(-c3csc(-c4c[nH]c5ccc(Br)cc45)n3)c[nH]c12

30.3
21

----------
# Test system: MDA-MB-435 melanoma
# TEST: NCI-60 one-dose screen, 48 h (100 = growth as untreated, 0 = no growth, -100 = all killed)
# SETTINGS: 10 µM unless noted
# Protocol: Growth inhibition of the MDA-MB-435 human Melanoma tumor cell line is measured as a screen for anti-cancer activity. Cells are grown in 96 well plates and exposed to the test compound for 48 hours. Compounds are tested at a single concentration, which is 10^-5 M for most compounds. The reported endpoint is percent growth (GI% or GIPRCNT), where numbers from 0 - 100% represent growth inhibition, and numbers from -100% - 0 represent cell death. […]
This is part of a sample that, as a whole, favours compounds with a hit. Of some 83,000 tested, about 20% had one in any assay.
Is growth at least 90%? Then yes. If not, no.

Use these answered entries as a reference point.
> print(dat)
                              line.notation  group.label
1  Cc1ccc(-c2nc3nc(-c4ccccc4)nc(N4CCCNCC4)c3o2)cc1           no
2  CONC1=Nc2cc(NC(N)=NCc3ccccc3)c(N(C)C3CCCCC3)cc2OC1           no
3  O=C(c1ccc(Nc2nccc(NCCCNc3ccnc4cc(Cl)ccc34)n2)cc1)N1CCCCC1           no

Tell me whether growth is at least 90% here: Cc1ccc(-c2nc(SCC(=O)c3ccc(C#N)cc3)[nH]c(=O)c2C#N)cc1
yes
